Value source: patent US20200071424A1

The following binders are listed with their measured kon values.
# subjectOfTest: T1, human [1-305]-mouse chimeric EL (human; mouse, UniProt Q9WVG5 306-500)
# T1 construct: Heparin extract, captured or detected by an anti-C2-tag antibody; also called human-mouse chimeric EL
# T1 sequence: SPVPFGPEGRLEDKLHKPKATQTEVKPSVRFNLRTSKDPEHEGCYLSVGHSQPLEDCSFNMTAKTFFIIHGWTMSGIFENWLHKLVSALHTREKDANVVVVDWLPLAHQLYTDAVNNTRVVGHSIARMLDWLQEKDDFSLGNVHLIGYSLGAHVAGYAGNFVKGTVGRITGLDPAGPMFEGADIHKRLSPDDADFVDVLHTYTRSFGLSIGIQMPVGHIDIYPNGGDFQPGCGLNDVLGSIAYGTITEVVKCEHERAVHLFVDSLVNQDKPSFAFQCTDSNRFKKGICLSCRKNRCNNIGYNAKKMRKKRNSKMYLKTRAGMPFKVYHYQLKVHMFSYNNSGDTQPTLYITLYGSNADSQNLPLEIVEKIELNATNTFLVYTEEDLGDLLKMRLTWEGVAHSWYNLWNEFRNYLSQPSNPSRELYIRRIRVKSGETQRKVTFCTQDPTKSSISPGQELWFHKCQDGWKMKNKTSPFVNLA
# protocolDetails: Biacore; EL captured by anti-C2-tag Ab; bivalent fit
valueType: kon

[[record]]
binder = "55A1 (antibody, mouse IgG2a, V domains shown, mouse IgG2a from hybridoma; also called 55A1 (mouse mAb)) VH: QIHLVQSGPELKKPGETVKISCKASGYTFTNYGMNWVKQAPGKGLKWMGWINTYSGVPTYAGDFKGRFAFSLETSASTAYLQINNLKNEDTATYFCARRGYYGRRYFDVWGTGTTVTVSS VL: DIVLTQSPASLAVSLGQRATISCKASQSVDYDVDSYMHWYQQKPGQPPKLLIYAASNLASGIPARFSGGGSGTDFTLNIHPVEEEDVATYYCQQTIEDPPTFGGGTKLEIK"
valuetype = "kon"
reportedmeasurement = "190000 M⁻¹ s⁻¹"

[[record]]
binder = "16B3 (antibody, mouse IgG2a, V domains shown, mouse IgG2a from hybridoma; also called 16B3 (mouse mAb)) VH: DVKLVESGGGLVQPGGSLKLSCTASGFTFSGYTMSWVRQTPEKRLELVAEISFARDRAFYPDTVKGRFTISRDNAKNTLYLQMSSLKSEDTAMYYCTRLGGRNHDYWYFDVWGTGTTVTVSS VL: DIVLTQSPTSLAVSPGQRATISCRASESVEYYGTSLMQWYQQKPGQRPQLLIYAASNVESGVPARFSGSGSGTDFSLNIHPVEEDDIAVYFCQQSWKVPFTFGSGTKLEIK"
valuetype = "kon"
reportedmeasurement = "51000 M⁻¹ s⁻¹"

[[record]]
binder = "14A1 (antibody, mouse IgG1, V domains shown, mouse IgG1 from hybridoma) VH: QIQLVQSGPELKKPGETVKISCKASGYTFTNYGMNWVKQAPGKGLKWMGWINTYSGVPTYADDFKGRFAFSLETSASTAYLQINNFKNEDTATYFCARFSYYGRHYFDYWGQGTALTASS VL: DIVLTQSPASLAVSLGQRATISCKASQSVDYDGDSYMNWYQQKPGQPPKLLIYAASNLKSGIPARFSGSGSGTDFTLNIHPVEEEDAATYYCQQTTDDPPWTFGGGTKLEIK"
valuetype = "kon"
reportedmeasurement = "210000 M⁻¹ s⁻¹"

[[record]]
binder = "7D4 (antibody, mouse IgG1, V domains shown, mouse IgG1 from hybridoma) VH: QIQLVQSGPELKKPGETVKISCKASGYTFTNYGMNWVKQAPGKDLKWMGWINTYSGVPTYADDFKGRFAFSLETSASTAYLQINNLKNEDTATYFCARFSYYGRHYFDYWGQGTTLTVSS VL: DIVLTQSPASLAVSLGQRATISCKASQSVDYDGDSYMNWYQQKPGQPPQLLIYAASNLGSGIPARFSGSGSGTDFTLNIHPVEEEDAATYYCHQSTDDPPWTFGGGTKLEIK"
valuetype = "kon"
reportedmeasurement = "110000 M⁻¹ s⁻¹"

[[record]]
binder = "13B3 (antibody, mouse IgG2a, V domains shown, mouse IgG2a from hybridoma; also called 13B3 (mouse mAb)) VH: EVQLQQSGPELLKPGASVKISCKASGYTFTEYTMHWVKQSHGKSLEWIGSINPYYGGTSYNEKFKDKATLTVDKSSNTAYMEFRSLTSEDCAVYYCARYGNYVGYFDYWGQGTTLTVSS VL: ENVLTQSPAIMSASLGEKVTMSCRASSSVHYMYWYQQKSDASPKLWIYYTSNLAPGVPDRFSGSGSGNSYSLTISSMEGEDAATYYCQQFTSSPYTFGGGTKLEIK"
valuetype = "kon"
reportedmeasurement = "150000 M⁻¹ s⁻¹"

